Hey, just so you know, these numbers are from ChEMBL document CHEMBL5316337.

- System: Klebsiella pneumoniae
- Protocol summary: Antibacterial activity against Carbapenem-resistant Klebsiella pneumoniae FADD1-KP022 clinical isolates assessed as reduction in bacterial growth by broth microdilution method
- Type: functional
The following molecules are listed with their measured log10 MIC values.
// do not treat as linear: log10 of MIC, unit µg/mL

Below are worked cases with known answers.
CC[C@H](C)CCCCC(=O)N[C@@H](CCN)C(=O)N[C@H](C(=O)N[C@@H](CCN)C(=O)N[C@H]1CCNC(=O)[C@H](CC(N)=O)NC(=O)[C@H](CCN)NC(=O)[C@H](CCN)NC(=O)[C@H](CC(C)C)NC(=O)[C@@H](Cc2ccccc2)NC(=O)[C@H](CCN)NC1=O)[C@@H](C)O
0.90
CC[C@H](C)CCCCC(=O)N[C@@H](CCN)C(=O)N[C@H](C(=O)N[C@@H](CCN)C(=O)N[C@H]1CCNC(=O)[C@H](CCCN)NC(=O)[C@H](CCN)NC(=O)[C@H](CCN)NC(=O)[C@H](CC(C)C)NC(=O)[C@@H](Cc2ccccc2)NC(=O)[C@H](CCN)NC1=O)[C@@H](C)O
0.60
CCC[C@@H]1NC(=O)[C@H](CCN)NC(=O)[C@H](CCN)NC(=O)[C@H](CC(C)C)NC(=O)[C@@H](Cc2ccccc2)NC(=O)[C@H](CCN)NC(=O)[C@@H](NC(=O)[C@H](CCN)NC(=O)[C@@H](NC(=O)[C@H](CCN)NC(=O)CCCC[C@@H](C)CC)[C@@H](C)O)CCNC1=O
-0.30
CC[C@H](C)CCCCC(=O)N[C@@H](CCN)C(=O)N[C@H](C(=O)N[C@@H](CCN)C(=O)N[C@H]1CCNC(=O)[C@H]([C@@H](C)O)NC(=O)[C@H](CCN)NC(=O)[C@H](CCN)NC(=O)[C@H](CC(C)C)NC(=O)[C@@H](Cc2ccccc2)NC(=O)[C@H](CCN)NC1=O)[C@@H](C)O
-0.60

Any idea what its log10 MIC is? The molecule is "CC[C@H](C)CCCCC(=O)N[C@@H](CCN)C(=O)N[C@H](C(=O)N[C@@H](CCN)C(=O)N[C@H]1CCNC(=O)[C@H](CCO)NC(=O)[C@H](CCN)NC(=O)[C@H](CCN)NC(=O)[C@H](CC(C)C)NC(=O)[C@@H](Cc2ccccc2)NC(=O)[C@H](CCN)NC1=O)[C@@H](C)O" -0.30

Any idea what its log10 MIC is? The molecule is "CC[C@H](C)CCCCC(=O)N[C@@H](CCN)C(=O)N[C@H](C(=O)N[C@@H](CCN)C(=O)N[C@H]1CCNC(=O)[C@H](Cc2ccccc2)NC(=O)[C@H](CCN)NC(=O)[C@H](CCN)NC(=O)[C@H](CC(C)C)NC(=O)[C@@H](Cc2ccccc2)NC(=O)[C@H](CCN)NC1=O)[C@@H](C)O" 0.00

Any idea what its log10 MIC is? The molecule is CC[C@H](C)CCCCC(=O)N[C@@H](CCN)C(=O)N[C@H](C(=O)N[C@@H](CCN)C(=O)N[C@H]1CCNC(=O)[C@H](C(C)N=[N+]=[N-])NC(=O)[C@H](CCN)NC(=O)[C@H](CCN)NC(=O)[C@H](CC(C)C)NC(=O)[C@@H](Cc2ccccc2)NC(=O)[C@H](CCN)NC1=O)[C@@H](C)O (some centres not stated) 0.00
